Data origin: paper PMC4792962

Molecular target: yeast 20S proteasome core particle (yCP), β5 active site (ChT-L activity) (Saccharomyces cerevisiae, UniProt P23724+P30656, P30656:T76S)
Construct: native 20S core particle purified from yeast (α7β7β7α7, 28 subunits), untagged; β5 mature after autocatalytic propeptide removal; in 'pp trans' mutants the β5 propeptide is expressed separately; with Proteasome subunit beta type-1; Proteasome subunit beta type-2; Proteasome subunit beta type-3; Proteasome subunit beta type-4; Proteasome subunit beta type-7; Proteasome subunit alpha type-1; Proteasome subunit alpha type-2; Proteasome subunit alpha type-3; Proteasome subunit alpha type-4; Proteasome subunit alpha type-5; Proteasome subunit alpha type-6; Probable proteasome subunit alpha type-7
Sequence (P30656 76-287 T76S): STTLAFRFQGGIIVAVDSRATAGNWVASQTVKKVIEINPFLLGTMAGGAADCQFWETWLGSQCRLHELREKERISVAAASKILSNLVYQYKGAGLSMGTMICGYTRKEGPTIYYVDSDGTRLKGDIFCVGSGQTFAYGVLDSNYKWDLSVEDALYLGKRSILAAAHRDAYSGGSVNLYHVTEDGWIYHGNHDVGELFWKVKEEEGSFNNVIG
Sequence (P23724 20-241): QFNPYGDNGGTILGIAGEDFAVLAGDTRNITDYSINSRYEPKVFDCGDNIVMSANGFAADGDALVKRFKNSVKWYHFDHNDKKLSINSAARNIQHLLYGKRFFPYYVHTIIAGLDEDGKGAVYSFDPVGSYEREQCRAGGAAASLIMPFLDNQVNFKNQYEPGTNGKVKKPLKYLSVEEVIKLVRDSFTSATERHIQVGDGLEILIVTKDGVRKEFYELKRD
Experiment: fluorescence inhibition assay, Suc-LLVY-AMC
quantityKind: IC50

Record "CC(C)C[C@H](NC(=O)[C@H](Cc1ccccc1)NC(=O)c1cnccn1)B(O)O" , field IC50: 649 nM
